- tested.system: PDGFRα (Homo sapiens, UniProt P16234)
- Construct: purchased Millipore 14-467 (lot 26321_ACTI)
- Sequence (P16234 24-1089): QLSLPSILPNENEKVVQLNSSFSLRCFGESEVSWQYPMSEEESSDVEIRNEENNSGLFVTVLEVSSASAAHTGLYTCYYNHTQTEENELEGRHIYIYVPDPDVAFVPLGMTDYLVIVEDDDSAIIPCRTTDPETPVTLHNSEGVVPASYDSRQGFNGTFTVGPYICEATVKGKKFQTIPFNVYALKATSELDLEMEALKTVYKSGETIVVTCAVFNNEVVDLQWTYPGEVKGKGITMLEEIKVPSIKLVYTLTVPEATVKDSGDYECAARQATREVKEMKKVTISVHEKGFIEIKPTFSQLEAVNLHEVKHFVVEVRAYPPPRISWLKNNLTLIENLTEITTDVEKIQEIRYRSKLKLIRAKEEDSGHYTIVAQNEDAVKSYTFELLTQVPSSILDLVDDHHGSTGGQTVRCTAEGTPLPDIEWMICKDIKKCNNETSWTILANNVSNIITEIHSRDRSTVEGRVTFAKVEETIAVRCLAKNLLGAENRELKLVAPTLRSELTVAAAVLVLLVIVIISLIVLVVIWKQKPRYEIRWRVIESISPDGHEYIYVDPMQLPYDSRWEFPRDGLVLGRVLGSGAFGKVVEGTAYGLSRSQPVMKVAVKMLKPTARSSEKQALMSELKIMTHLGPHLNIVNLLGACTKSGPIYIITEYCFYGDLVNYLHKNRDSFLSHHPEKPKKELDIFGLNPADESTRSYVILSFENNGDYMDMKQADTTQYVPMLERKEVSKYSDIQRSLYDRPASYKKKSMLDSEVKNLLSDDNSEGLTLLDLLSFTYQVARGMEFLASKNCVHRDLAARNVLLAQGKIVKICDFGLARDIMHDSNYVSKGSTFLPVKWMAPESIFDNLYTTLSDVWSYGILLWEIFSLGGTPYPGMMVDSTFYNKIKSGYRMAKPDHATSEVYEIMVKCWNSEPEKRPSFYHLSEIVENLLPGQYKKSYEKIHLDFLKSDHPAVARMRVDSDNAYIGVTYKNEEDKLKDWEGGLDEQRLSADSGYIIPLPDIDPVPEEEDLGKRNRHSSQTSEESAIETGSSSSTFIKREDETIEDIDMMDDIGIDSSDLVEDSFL
- assay.summary: Caliper biochemical assay, PDGFRα
- condition: Table 6
pIC50: −log10 of the molar value.
In this section we review reported pIC50 values for a set of compounds.

Consider the following illustrative entries.
Cc1cc(C)cc(Nc2ccc3ncc(C(=O)Nc4cc(-c5noc([C@H]6C[C@@H]6F)n5)ccc4C)n3c2)c1 [Compound I-299]: 6.30 to 7.30
Cc1ccc(-c2noc([C@@H]3CC4(CC4)CN3)n2)cc1NC(=O)c1cnc2ccccn12 [Compound I-230]: 6.30 to 7.30
Cc1ccc(-c2noc([C@@H]3CCN3C3CC3)n2)cc1NC(=O)c1cnc2ccccn12 (racemic) [Compound I-177]: 6.30 to 7.30
COC(=O)CS(=O)(=O)N1CC(c2nc(-c3ccc(C)c(NC(=O)c4cnc5ccccn45)c3)no2)C1 [Compound I-236]: 4.52 to 5.30
COC(=O)N1CC(c2nc(-c3ccc(C(F)F)c(NC(=O)c4cnc5ccccn45)c3)no2)C1 [Compound I-225]: 4.52 to 5.30
Cc1ccc(-c2noc([C@@H]3CCN3S(=O)(=O)c3cn(C)cn3)n2)cc1NC(=O)c1cnc2ccccn12 [Compound I-184]: 5.30 to 6.30
Cc1ccc(-c2noc(C3CCC(=O)N3C)n2)cc1NC(=O)c1cnc2ccccn12 (racemic) [Compound I-326]: 4.52 to 5.30
COC(=O)N1CC(c2nc(-c3ccc(C)c(NC(=O)c4cnc5cc(OC(C)(C)CO)ccn45)c3)no2)C1 [Compound I-228]: 6.30 to 7.30

Documented pIC50 of Cc1ccc(-c2noc([C@H]3CCN3C(C)C)n2)cc1NC(=O)c1cnc2ccccn12 [Compound I-194] : 6.30 to 7.30

Documented pIC50 of Cc1ccc(-c2noc(C3CC(C)(F)C3)n2)cc1NC(=O)c1cnc2ccccn12 (centres unmarked) [Compound I-387] : 6.30 to 7.30

Documented pIC50 of Cc1ccc(-c2noc([C@H]3CCN3C3CCC3)n2)cc1NC(=O)c1cnc2ccccn12 [Compound I-193] : 6.30 to 7.30

Documented pIC50 of Cc1ccc(-c2noc(CC3CC3(F)F)n2)cc1NC(=O)c1cnc2ccccn12 (centres unmarked) [Compound I-125] : 6.30 to 7.30

Documented pIC50 of CCS(=O)(=O)N1CC[C@@H]1c1nc(-c2ccc(C)c(NC(=O)c3cnc4ccccn34)c2)no1 [Compound I-234] : 6.30 to 7.30

Documented pIC50 of COC(=O)N1CC(c2nc(-c3ccc(C)c(NC(=O)c4cnn5cc(Br)ccc45)c3)no2)C1 [Compound I-312] : 5.30 to 6.30

# credit: patent US20240254119A1
